assay: Apparent permeability from basolateral to apical side in human Caco2 cells at 25 uM at pH 7.4 by HPLC-DAD analysis; format: ADME, cell-based; settings: Caco-2, pH 7.4
measure: Papp B→A at 25 µM (×10⁻⁶ cm/s)

In [3]: df
Out[3]:
                                  structure  quantitative_result
0  C=C1CC/C=C(/C(=O)O)C[C@H](O)[C@@H]2[C@@H]1CC2(C)C                 4.41

---

experiment: Efflux ratio of apparent permeability from basolateral to apical side to apical to basolateral side in human Caco2 cells at 50 uM at pH 7.4 by HPLC-DAD analysis; type: ADME, cell-based; details: Caco-2, pH 7.4
measure: efflux ratio at 50 µM

In [3]: df
Out[3]:
                                  structure  quantitative_result
0  C=C1CC/C=C(/C(=O)O)C[C@H](O)[C@@H]2[C@@H]1CC2(C)C                 1.02

---

assay: Apparent permeability from basolateral to apical side in human Caco2 cells at 50 uM at pH 7.4 by HPLC-DAD analysis; assay type: ADME, cell-based; conditions: Caco-2, pH 7.4
measure: Papp B→A at 50 µM

                                  structure            measure           result
0  C=C1CC/C=C(/C(=O)O)C[C@H](O)[C@@H]2[C@@H]1CC2(C)C  Papp B→A at 50 µM  4.17 ×10⁻⁶ cm/s

---

experiment: Efflux ratio of apparent permeability from basolateral to apical side to apical to basolateral side in human Caco2 cells at 25 uM at pH 7.4 by HPLC-DAD analysis; type: ADME, cell-based; conditions: Caco-2, pH 7.4
measure: efflux ratio at 25 µM

>>> df
                                  structure  quantitative_result
0  C=C1CC/C=C(/C(=O)O)C[C@H](O)[C@@H]2[C@@H]1CC2(C)C                 0.94

---

experiment: Apparent permeability from apical to basolateral side in human Caco2 cells at 50 uM at pH 7.4 after 30 mins by HPLC-DAD analysis; format: ADME, cell-based; details: Caco-2, pH 7.4
measure: Papp A→B at 0.5 h, 50 µM (×10⁻⁶ cm/s)

>>> df
                                  structure           u  quantitative_result
0  C=C1CC/C=C(/C(=O)O)C[C@H](O)[C@@H]2[C@@H]1CC2(C)C  ×10⁻⁶ cm/s                 4.07
